Source: the OligoGym collection

Target: AWAT2
Assay: pooled miR-30 sensor sort-seq; sequence = guide strand
Conditions: shRNA
Parameter threshold = -0.09. Response is 1 when sensor-assay potency score (higher = more potent) meets or exceeds it, else -1.

> print(dat)
            residue.codes  group
1  ATATTTAGCCACGATCTCCTGG     -1

In plain terms: is recorded sensor-assay potency score (higher = more potent) at least -0.09 for ATAAGCACAGTGACAGGCCAGT ? -1

Is sensor-assay potency score (higher = more potent) for TTGACAGCAATCACAGTGGTTG at or above -0.09? -1

Please check the record TAGACATTACATATTCTCTGAG and state if its sensor-assay potency score (higher = more potent) is at or above -0.09. 1

Hi, just wondering whether ATAATCGCTGTAGTGTTTCCAC shows sensor-assay potency score (higher = more potent) of -0.09 or higher. 1

hey, is sensor-assay potency score (higher = more potent) for this one >= -0.09? TTCTTGGGACTATCTCACCAGT -1

For this sequence, is measured sensor-assay potency score (higher = more potent) -0.09 or higher? TTAGCCACGATCTCCTGGCTTG -1

Is it the case that TATTTAGCCACGATCTCCTGGC has sensor-assay potency score (higher = more potent) reaching or exceeding -0.09? 1

====

Target: ORM2
Experiment: pooled miR-30 sensor sort-seq; sequence = guide strand
Settings: shRNA
Please note: rule met applies when sensor-assay potency score (higher = more potent) is -0.2 or greater, and rule not met applies otherwise.

Please review the following examples before continuing.
> print(dat)
            residue.codes  target.system         group
1  GTGTACATGACATCTGACCTGG           ORM2  rule not met
2  TCATCGTCCAGGTAGGAACCAA           ORM2  rule not met
3  TACATGACATCTGACCTGGGAA           ORM2      rule met
4  TGTACATGACATCTGACCTGGG           ORM2      rule met
5  TTATCCTTTTTCCAGTCGGTGT           ORM2  rule not met

Is it the case that TTATAGAAGCACTGGTTCTGGC has sensor-assay potency score (higher = more potent) reaching or exceeding -0.2? rule met

Check the entry TAGAAGCACTGGTTCTGGCGGG : does sensor-assay potency score (higher = more potent) equal or exceed -0.2? rule not met

Given the entry TAAGGAACAGCAGGTGAGCAAC , answer whether its sensor-assay potency score (higher = more potent) meets or surpasses -0.2. rule not met

====

Target: EPHB3
Assay: pooled miR-30 sensor sort-seq; sequence = guide strand
Conditions: shRNA
Parameter: sensor-assay potency score (higher = more potent)
Give only the figure.

Known results for sequences:
> print(dat)
            residue.codes  target.system  experimental.result
1  ATGACAATTCCGTAGCTCCAGA          EPHB3                -1.32
2  TTCATCTGGCTGGTCACTGTGG          EPHB3               -0.423

Now for the sequence whose sensor-assay potency score (higher = more potent) we want.
Name the recorded sensor-assay potency score (higher = more potent) of the sequence listed here: TATGACAGCACCAAGGGCGGGG -0.054

====

Target: TMEM158
Assay: pooled miR-30 sensor sort-seq; sequence = guide strand
Settings: shRNA
Parameter: sensor-assay potency score (higher = more potent)
Give only the figure.

Use the examples below as a reference point.
> print(dat)
            residue.codes  target.system  experimental.result
1  TTAAACATCTGCTTTTCGGAAC        TMEM158               -0.542
2  TACGGTTCAGCCGCCAGCCCGG        TMEM158                -1.31
3  TGATGTTGCACGGCGCCGCCGC        TMEM158               -0.887

Quote sensor-assay potency score (higher = more potent) reported for TTTTCTGCCATGAATCTAGGGC please. -0.129

Note down sensor-assay potency score (higher = more potent) recorded for TCCAGGCTGAAGTCTAGGCAGC -1.79

Look up and state reported sensor-assay potency score (higher = more potent) for TCGCACTGGAAGCCCCGCGGGC -1.57

Please look at this sequence and report its sensor-assay potency score (higher = more potent): TAACGATAACTACAGCACGAAG -1.77

Give the reported value of sensor-assay potency score (higher = more potent) for this record: AAGAGCAGTAGGTCGCACTGGA 0.351

Tell me sensor-assay potency score (higher = more potent) reported for TATAAAACAAATACACAGGATT -0.653

Give recorded sensor-assay potency score (higher = more potent). ATGACCAGGGTCATGAAGCAGG -1.09
